tested on: large crabgrass (Digitaria sanguinalis); assay: Test A pre-/postemergence plant response; type: in vivo; conditions: Preemergence, 500 g ai/ha; visual injury, 0 to 100 scale (0 no effect, 100 complete control), approx. ten days
This section presents compounds with their documented Plant response rating, Crabgrass, Large values.
quantity.measured: Plant response rating, Crabgrass, Large

[[record]]
smiles_text = "COCCn1c(-c2cccc(F)c2)ncc(C(=O)C2=C(O)CCCC2=O)c1=O"
quantity_measured = "Plant response rating, Crabgrass, Large"
readout_number = 100

[[record]]
smiles_text = "CCCCn1c(-c2cccc(Br)c2)ncc(C(=O)C2=C(O)CCCC2=O)c1=O"
quantity_measured = "Plant response rating, Crabgrass, Large"
readout_number = 70

[[record]]
smiles_text = "Cc1ccccc1-n1c(-c2ccccc2)ncc(C(=O)C2=C(O)CCCC2=O)c1=O"
quantity_measured = "Plant response rating, Crabgrass, Large"
readout_number = 90

[[record]]
smiles_text = "COCCCn1c(-c2cc(F)cc(F)c2)ncc(C(=O)C2=C(O)CCCC2=O)c1=O"
quantity_measured = "Plant response rating, Crabgrass, Large"
readout_number = 100

[[record]]
smiles_text = "Cc1ccc(-n2c(-c3ccccc3)ncc(C(=O)C3=C(O)CCCC3=O)c2=O)c(C)c1"
quantity_measured = "Plant response rating, Crabgrass, Large"
readout_number = 60

[[record]]
smiles_text = "CCn1c(-c2cccc(Cl)c2)ncc(C(=O)C2=C(O)CCCC2=O)c1=O"
quantity_measured = "Plant response rating, Crabgrass, Large"
readout_number = 100

[[record]]
smiles_text = "CCCCCCc1ncc(C(=O)C2=C(O)CCCC2=O)c(=O)n1-c1ccccc1"
quantity_measured = "Plant response rating, Crabgrass, Large"
readout_number = 30

[[record]]
smiles_text = "O=C1CCCC(O)=C1C(=O)c1cnc(-c2ccccc2Br)n(-c2ccccc2)c1=O"
quantity_measured = "Plant response rating, Crabgrass, Large"
readout_number = 50

[[record]]
smiles_text = "CCCCn1c(-c2cccc(C)c2)ncc(C(=O)C2=C(O)CCCC2=O)c1=O"
quantity_measured = "Plant response rating, Crabgrass, Large"
readout_number = 70

[[record]]
smiles_text = "O=C1CCCC(O)=C1C(=O)c1cnc(-c2ccsc2)n(-c2ccccc2)c1=O"
quantity_measured = "Plant response rating, Crabgrass, Large"
readout_number = 90


###

This section presents molecules with their documented Blackgrass plant response rating (0 to 100 scale) values.
system: blackgrass (Alopecurus myosuroides); experiment: Test B pre-/postemergence plant response; type: in vivo; conditions: 62 g ai/ha, postemergence; 0 is no effect, 100 is complete control; 13 to 15 days
quantity.measured: Blackgrass plant response rating (0 to 100 scale)

[[record]]
smiles_text = "COCCn1c(-c2cc(F)cc(F)c2)ncc(C(=O)C2=C(O)CCCC2=O)c1=O"
readout_number = 20

[[record]]
smiles_text = "O=C1CCCC(OC(=O)C2CC2)=C1C(=O)c1cnc(-c2ccccc2)n(-c2ccccc2)c1=O"
readout_number = 5

[[record]]
smiles_text = "O=C1CCCC(O)=C1C(=O)c1cnc(-c2ccccc2)n(C2CCCC2)c1=O"
readout_number = 0

[[record]]
smiles_text = "Cc1ccccc1-n1c(-c2cc(F)cc(F)c2)ncc(C(=O)C2=C(O)CCCC2=O)c1=O"
readout_number = 25

[[record]]
smiles_text = "Cc1ccc(Cl)cc1-n1c(-c2cccc(F)c2)ncc(C(=O)C2=C(O)CCCC2=O)c1=O"
readout_number = 35

[[record]]
smiles_text = "COCCCn1c(-c2cc(F)cc(F)c2)ncc(C(=O)C2=C(O)CCCC2=O)c1=O"
readout_number = 30

[[record]]
smiles_text = "CC(C)CC(=O)OC1=C(C(=O)c2cnc(-c3ccccc3)n(-c3ccccc3)c2=O)C(=O)CCC1"
readout_number = 0

[[record]]
smiles_text = "CC(C)n1c(-c2ccccc2)ncc(C(=O)C2=C(O)CCCC2=O)c1=O"
readout_number = 0


###

system: giant foxtail (Setaria faberii); experiment: Test B pre-/postemergence plant response; format: in vivo; settings: Postemergence, 125 g ai/ha; visual rating after 13 to 15 days, scale 0 (no effect) to 100 (complete control)
Lab note: cut-off is 80. Strictly less in Plant response rating, Foxtail, Giant is Satisfied. Exactly 80 or more is Not satisfied.

[[record]]
compound = "O=C1CCCC(O)=C1C(=O)c1cnc(-c2ccccc2)n(CC2CCCO2)c1=O (stereo not shown)"
answer_label = "Not satisfied"

[[record]]
compound = "Cc1ccc(-n2c(-c3ccccc3)ncc(C(=O)C3=C(O)CCCC3=O)c2=O)cc1"
answer_label = "Not satisfied"

[[record]]
compound = "O=C1CCCC(O)=C1C(=O)c1cnc(-c2ccccc2)n(-c2ccccc2F)c1=O"
answer_label = "Satisfied"

[[record]]
compound = "Cn1c(-c2ccccc2)ncc(C(=O)C2=C(O)CCCC2=O)c1=O"
answer_label = "Satisfied"

[[record]]
compound = "Cc1cc(-n2c(-c3ccccc3)ncc(C(=O)C3=C(O)CCCC3=O)c2=O)ccc1F"
answer_label = "Not satisfied"

[[record]]
compound = "Cc1ccccc1-n1c(-c2ccccc2)ncc(C(=O)C2=C(O)CCCC2=O)c1=O"
answer_label = "Not satisfied"

[[record]]
compound = "Cc1cc(C)cc(-n2c(-c3ccccc3)ncc(C(=O)C3=C(O)CCCC3=O)c2=O)c1"
answer_label = "Not satisfied"

[[record]]
compound = "CCCCc1ncc(C(=O)C2=C(O)CCCC2=O)c(=O)n1-c1cccc(C)c1"
answer_label = "Satisfied"

[[record]]
compound = "CCCn1c(-c2cccs2)ncc(C(=O)C2=C(O)CCCC2=O)c1=O"
answer_label = "Satisfied"


###

This section presents molecules with their documented Plant response rating, Nutsedge, Purple values.
system: nutsedge (purple nutsedge, Cyperus rotundus); experiment: Test D pre-/postemergence plant response; assay type: in vivo; conditions: Postemergence, 125 g ai/ha; scale 0 to 100 (0 no effect, 100 complete control)
quantity.measured: Plant response rating, Nutsedge, Purple

[[record]]
molecule = "COCCn1c(-c2cc(F)cc(F)c2)ncc(C(=O)C2=C(O)C3CCC(C3)C2=O)c1=O (stereo not shown) [Compound 243]"
tested_on = "nutsedge (purple nutsedge, Cyperus rotundus)"
quantity_measured = "Plant response rating, Nutsedge, Purple"
readout_number = 25

[[record]]
molecule = "COCCCn1c(-c2cccc(F)c2)ncc(C(=O)C2=C(O)C3CCC(C3)C2=O)c1=O (stereo not shown) [Compound 238]"
tested_on = "nutsedge (purple nutsedge, Cyperus rotundus)"
quantity_measured = "Plant response rating, Nutsedge, Purple"
readout_number = 20

[[record]]
molecule = "COCCn1c(-c2cccc(F)c2)ncc(C(=O)C2=C(O)C3CCC(C3)C2=O)c1=O (stereo not shown) [Compound 235]"
tested_on = "nutsedge (purple nutsedge, Cyperus rotundus)"
quantity_measured = "Plant response rating, Nutsedge, Purple"
readout_number = 30

[[record]]
molecule = "COCCn1c(-c2ccsc2)ncc(C(=O)C2=C(O)C3CCC(C3)C2=O)c1=O (stereo not shown) [Compound 228]"
tested_on = "nutsedge (purple nutsedge, Cyperus rotundus)"
quantity_measured = "Plant response rating, Nutsedge, Purple"
readout_number = 15


###

tested on: barnyardgrass (Echinochloa crus-galli); assay: Test B flooded paddy test; assay type: in vivo; settings: 250 g ai/ha; flooded paddy test; visual rating on 0 to 100 scale (0 no effect, 100 complete control) after 13 to 15 days
quantity.measured: Plant response rating, Flood, Barnyardgrass

[[record]]
compound = "CCCn1c(-c2ccsc2)ncc(C(=O)C2=C(O)C3CCC(C3)C2=O)c1=O (centres unmarked)"
result = 60

[[record]]
compound = "Cc1ccccc1-n1c(-c2ccccc2)ncc(C(=O)C2=C(O)CCCC2=O)c1=O"
result = 0

[[record]]
compound = "O=C1CCCC(O)=C1C(=O)c1cnc(-c2cccc(F)c2)n(CCC(F)(F)F)c1=O"
result = 25

[[record]]
compound = "O=C1CCCC(O)=C1C(=O)c1cnc(-c2ccccc2)n(-c2ccc(F)cc2F)c1=O"
result = 25

[[record]]
compound = "CCCn1c(-c2cc(C)cc(C)c2)ncc(C(=O)C2=C(O)CCCC2=O)c1=O"
result = 60

[[record]]
compound = "CCCn1c(-c2cccc(C(F)(F)F)c2)ncc(C(=O)C2=C(O)CCCC2=O)c1=O"
result = 45

[[record]]
compound = "O=C(C1=C(O)C2CCC(C2)C1=O)c1cnc(-c2cc(F)c(F)c(F)c2)n(C2CCCCC2)c1=O (centres unmarked)"
result = 20

[[record]]
compound = "CCCn1c(-c2ccco2)ncc(C(=O)C2=C(O)CCCC2=O)c1=O"
result = 40


###

This section presents compounds with their documented Plant response rating, Goosegrass values.
Tested on: goosegrass (Eleusine indica)
Test: Test D pre-/postemergence plant response
Assay type: in vivo
Conditions: Postemergence, 125 g ai/ha; scale 0 to 100 (0 no effect, 100 complete control)
From the text: […] Treated plants and controls were maintained in a greenhouse for 14 to 21 days, after which time all species were visually evaluated and compared to controls. […]
quantity.measured: Plant response rating, Goosegrass

[[record]]
compound = "COCCn1c(-c2cccc(F)c2)ncc(C(=O)C2=C(O)C3CCC(C3)C2=O)c1=O (stereo not shown)"
readout_number = 75

[[record]]
compound = "COCCn1c(-c2cc(F)cc(F)c2)ncc(C(=O)C2=C(O)C3CCC(C3)C2=O)c1=O (stereo not shown)"
readout_number = 70

[[record]]
compound = "CCCCn1c(-c2cc(F)cc(F)c2)ncc(C(=O)C2=C(O)C3CCC(C3)C2=O)c1=O (stereo not shown)"
readout_number = 70

[[record]]
compound = "COCCn1c(-c2ccccc2)ncc(C(=O)C2=C(O)CCCC2=O)c1=O"
readout_number = 75

